Origin of the recorded values: patent US20240116845A1

Here, each record is paired with measured inhibition at 3.3 µM data.
- Test system: HeLa (cervical cancer)
- method-summary: Antiproliferative activity, CCK-8 cell viability
- Type: cell-based
- condition-label: Homo sapiens, compound concentration of 3.3 μM, 72 h, read-out: Inhibition of Cancerous Cells, HELA

CC1=C(CC(=O)O)c2cc(F)ccc2/C1=C\c1ccccc1Oc1ccccc1 [Compound D19] :: 30 to 50%

Measured inhibition at 3.3 µM (HeLa (cervical cancer)), entry CC1=C(CC(=O)NO)c2cc(F)ccc2/C1=C\c1ccc(C(C)(C)C)cc1 [Compound D42] : 30 to 50%

Measured inhibition at 3.3 µM (HeLa (cervical cancer)), entry O=C(O)CC1=C(Cc2ccccc2)/C(=C/c2ccc(Oc3ccc(F)cc3)cc2)c2ccc(F)cc21 [Compound D9] : 30 to 50%

Measured inhibition at 3.3 µM (HeLa (cervical cancer)), entry CC1=C(CC(=O)O)c2cc(F)ccc2/C1=C\c1cccc(COc2ccc(C(C)(C)C)cc2)c1 [Compound A22] : < 30%

Measured inhibition at 3.3 µM (HeLa (cervical cancer)), entry CC1=C(CC(=O)O)c2cc(F)ccc2/C1=C\c1cccc(Oc2ccc(Cl)cc2)c1 [Compound D25] : 30 to 50%

Measured inhibition at 3.3 µM (HeLa (cervical cancer)), entry COc1cccc2c1C(CC(=O)O)=C(C)/C2=C/c1ccc(Oc2ccccc2)cc1 [Compound D28] : < 30%

Measured inhibition at 3.3 µM (HeLa (cervical cancer)), entry CC1=C(CC(=O)O)c2cc(F)ccc2/C1=C\c1ccc(Oc2ccc(F)c(F)c2)cc1 [Compound D5] : 30 to 50%

Measured inhibition at 3.3 µM (HeLa (cervical cancer)), entry CC1=C(CC(=O)O)c2cc(F)cc(F)c2/C1=C/c1ccc(Oc2ccc(F)cc2)cc1 [Compound E4] : 30 to 50%

---

- Tested on: HepG2 (liver cancer)
- method-summary: Antiproliferative activity, CCK-8 cell viability
- Assay type: cell-based
- condition-label: Homo sapiens, compound concentration of 3.3 μM, 72 h, read-out: Inhibition of Cancerous Cells, HepG2
Here, each record is paired with measured inhibition at 3.3 µM data.

CC1=C(CC(=O)O)c2cc(F)ccc2/C1=C\c1ccc(CCc2ccccc2)cc1 [Compound A8] :: 30 to 50%

Measured inhibition at 3.3 µM (HepG2 (liver cancer)), entry CC1=C(CC(=O)O)c2cc(F)ccc2/C1=C\c1ccc(F)c(Oc2ccccc2)c1 [Compound D23] : 30 to 50%

Measured inhibition at 3.3 µM (HepG2 (liver cancer)), entry CC1=C(CC(=O)O)c2cc(F)cc(F)c2/C1=C/c1ccc(Oc2ccc(F)cc2)cc1 [Compound E4] : ≥ 50%

Measured inhibition at 3.3 µM (HepG2 (liver cancer)), entry CC1=C(CC(=O)O)c2cc(F)ccc2/C1=C\c1cccc(Oc2cccc(C(F)(F)F)c2)c1 [Compound D27] : ≥ 50%

---

- Test system: HepG2 (liver cancer)
- method-summary: Antiproliferative activity, CCK-8 cell viability
- Format: cell-based
- condition-label: Homo sapiens, compound concentration of 3.3 μM, 72 h, read-out: Inhibition of Cancerous Cells, HepG2
measured-parameter: inhibition at 3.3 µM

Some compounds with recorded inhibition at 3.3 µM:
CC1=C(CC(=O)O)c2cc(F)ccc2/C1=C\c1ccc(COc2ccc(F)cc2F)cc1 [Compound A15] :: ≥ 50%
CC1=C(CC(=O)O)c2cc(F)ccc2/C1=C\c1ccc(Oc2ccc(F)cc2)cc1C [Compound D14] :: 30 to 50%
O=C(O)CC1=C/C(=C/c2ccc(Oc3ccc(F)cc3)cc2)c2ccc(F)cc21 [Compound D33] :: ≥ 50%
O=C(O)CC1=C(Cc2ccccc2)/C(=C/c2ccc(Oc3ccc(F)cc3)cc2)c2ccc(F)cc21 [Compound D9] :: < 30%
COc1ccc2c(c1)/C(=C\c1ccc(CN(C)c3ccccc3)cc1)C(C)=C2CC(=O)O [Compound A13] :: ≥ 50%
CC1=C(CC(=O)O)c2cc(F)ccc2/C1=C\c1cccc(COc2ccccc2)c1 [Compound A5] :: ≥ 50%
CC1=C(CC(=O)O)c2cc(F)ccc2/C1=C\c1ccc(Oc2ccc(F)cc2)cc1C(F)(F)F [Compound D12] :: ≥ 50%

We next turn to a different compound, shown below.
// sample COc1cccc2c1C(CC(=O)O)=C(C)/C2=C/c1ccc(Oc2ccccc2)cc1 [Compound D28] , its inhibition at 3.3 µM was ≥ 50%

---

Here, each record is paired with measured inhibition at 3.3 µM data.
- Tested on: MDA-MB-231 (breast cancer)
- method-summary: Antiproliferative activity, CCK-8 cell viability
- Type: cell-based
- condition-label: Homo sapiens, compound concentration of 3.3 μM, 72 h, read-out: Inhibition of Cancerous Cells, MDA-MB-231

Some molecules with recorded inhibition at 3.3 µM:
CC1=C(CC(=O)O)c2cc(F)ccc2/C1=C\c1cccc(Oc2ccc(C(F)(F)F)cc2)c1 :: ≥ 50%
CC1=C(CC(=O)O)c2cc(F)ccc2/C1=C\c1ccc(Oc2ccc(F)cc2)cc1C :: 30 to 50%
CC1=C(CC(=O)O)c2cc(F)ccc2/C1=C\c1ccc(Cc2ccc(F)cc2)cc1 :: ≥ 50%

// sample CC1=C(CC(=O)O)c2cc(F)ccc2/C1=C\c1ccc(COc2ccc(F)cc2F)cc1 , its inhibition at 3.3 µM was ≥ 50%

// sample COc1ccc(Oc2cccc(/C=C3/C(C)=C(CC(=O)O)c4cc(F)ccc43)c2)cc1 , its inhibition at 3.3 µM was ≥ 50%

// sample O=C(O)CC1=C/C(=C/c2ccc(Oc3ccc(F)cc3)cc2)c2ccc(F)cc21 , its inhibition at 3.3 µM was ≥ 50%

// sample CC1=C(CC(=O)O)c2cc(F)ccc2/C1=C\c1cccc(COc2ccc(F)cc2)c1 , its inhibition at 3.3 µM was ≥ 50%

// sample CC1=C(CC(=O)O)c2cc(F)ccc2/C1=C\c1ccc(Oc2ccc(F)cc2)cc1C(F)(F)F , its inhibition at 3.3 µM was ≥ 50%

// sample CC1=C(CC(=O)NO)c2cc(F)ccc2/C1=C\c1ccc(C(C)(C)C)cc1 , its inhibition at 3.3 µM was ≥ 50%

// sample CC1=C(CC(=O)O)c2cc(F)ccc2/C1=C\c1ccc(CN(C)c2ccccc2)cc1 , its inhibition at 3.3 µM was 30 to 50%

// sample CC1=C(CC(=O)O)c2cc(F)ccc2/C1=C\c1cccc(CN(C)c2ccccc2)c1 , its inhibition at 3.3 µM was 30 to 50%

// sample CC1=C(CC(=O)O)c2cc(F)ccc2/C1=C\c1ccc(CCc2ccccc2)cc1 , its inhibition at 3.3 µM was 30 to 50%

// sample COc1cccc2c1C(CC(=O)O)=C(C)/C2=C/c1ccc(Oc2ccccc2)cc1 , its inhibition at 3.3 µM was 30 to 50%

// sample CC1=C(CC(=O)O)c2cc(F)ccc2/C1=C\c1cccc(CCc2ccccc2)c1 , its inhibition at 3.3 µM was ≥ 50%

// sample O=C(O)CC1=C(Cc2ccccc2)/C(=C/c2ccc(Oc3ccc(F)cc3)cc2)c2ccc(F)cc21 , its inhibition at 3.3 µM was ≥ 50%

// sample CC1=C(CC(=O)O)c2c(F)cc(F)cc2/C1=C\c1cccc(Oc2ccccc2)c1 , its inhibition at 3.3 µM was ≥ 50%

// sample CC1=C(CC(=O)N(C)O)c2cc(F)ccc2/C1=C\c1cccc(Oc2ccccc2)c1 , its inhibition at 3.3 µM was < 30%

---

Here, each record is paired with measured inhibition at 3.3 µM data.
- System: SW480 (colon cancer)
- method-summary: Antiproliferative activity, CCK-8 cell viability
- Format: cell-based
- condition-label: Homo sapiens, compound concentration of 3.3 μM, 72 h, read-out: Inhibition of Cancerous Cells, SW480

Some compounds with recorded inhibition at 3.3 µM:
O=C(O)CC1=C/C(=C/c2ccc(Oc3ccc(F)cc3)cc2)c2ccc(F)cc21 :: 30 to 50%
CC1=C(CC(=O)O)c2cc(F)ccc2/C1=C\c1cccc(COc2ccc(C(F)(F)F)cc2)c1 :: ≥ 50%
CC1=C(CC(=O)N(C)O)c2cc(F)ccc2/C1=C\c1ccc(Oc2ccccc2)cc1 :: ≥ 50%
CC1=C(CC(=O)O)c2cc(F)ccc2/C1=C\c1cccc(OCc2ccccc2)c1 :: 30 to 50%
CC1=C(CC(=O)O)c2cc(F)ccc2/C1=C\c1ccc(Oc2ccc(F)cc2)cc1C(F)(F)F :: 30 to 50%
CC1=C(CC(=O)O)c2cc(F)ccc2/C1=C\c1cccc(COc2ccc(F)cc2)c1 :: < 30%
CC1=C(CC(=O)O)c2cc(F)ccc2/C1=C\c1cccc(CN(C)c2ccccc2)c1 :: ≥ 50%
CC1=C(CC(=O)O)c2cc(F)ccc2/C1=C\c1cccc(COc2ccccc2)c1 :: ≥ 50%
CC1=C(CC(=O)O)c2cc(F)ccc2/C1=C\c1ccc(CN(Cc2ccccc2)c2ccccc2)cc1 :: ≥ 50%
CC1=C(CC(=O)O)c2cc(F)ccc2/C1=C\c1ccc(Oc2ccc(F)cc2)c(C)c1 :: 30 to 50%

We next turn to a different compound, shown below.
// sample CC1=C(CC(=O)O)c2cc(F)ccc2/C1=C\c1cccc(CCc2ccccc2)c1 , its inhibition at 3.3 µM was ≥ 50%
